test_system: Recombinant Human Ketohexokinase (KHK) (Homo sapiens (Human))
Sequence (P50053 whole entry): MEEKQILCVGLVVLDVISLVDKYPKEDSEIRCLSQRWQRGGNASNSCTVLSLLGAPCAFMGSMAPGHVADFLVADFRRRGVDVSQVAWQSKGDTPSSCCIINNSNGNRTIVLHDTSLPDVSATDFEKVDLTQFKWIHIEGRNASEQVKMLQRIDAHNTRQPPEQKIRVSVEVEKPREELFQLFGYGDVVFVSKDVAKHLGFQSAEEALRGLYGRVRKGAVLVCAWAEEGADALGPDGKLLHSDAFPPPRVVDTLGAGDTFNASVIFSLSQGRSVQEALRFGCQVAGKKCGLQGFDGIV
assay_info: Ketohexokinase assay (KHK assay), ADP-Glo
Description: • 1. EnVision multilabel reader, Perkin Elmer; • 2. OptiPlate 384-well microplate, Perkin Elmer, Cat. No. 6007290; • 3. Recombinant Human Ketohexokinase (KHK), R&D Cat. No.: 8177-HK-020, Lot No.: DDFK0117092; • 4. Fructose (D(−)-Fructose), SCR Cat. No.: 36003034; and • 5. ADP-Glo kinase assay kit, Promega_Cat. No.: V9101. […] 4. The detection plate was placed in an EnVision multilabel reader to read the chemiluminescent signal.
This listing pairs compounds with measured IC50.
property_label: IC50 (nM)

1) C[C@H]1CCN1c1nc(-c2cncc(CCC(=O)O)c2)c2ccsc2n1 [WX048]	92
2) C[C@H]1CCN1c1nc2c(c(N3C[C@@H]4[C@@H](CC(=O)O)[C@@H]4C3)n1)CCS2 [WX026]	91
3) C[C@H]1CCN1c1nc(N2CC3(C[C@@H]3C(=O)O)C2)c2ccsc2n1 [WX020]	130
